B1: BMPRII extracellular domain (ECD), wild type [human] / BMP10 growth factor (GF)-domain from Pro:BMP10 made in HEK EBNA cells [human] (parent complex)
chain 1: SQNQERLCAFKDPYQQDLGIGESRISHENGTILCSKGSTCYGLWEKSKGDINLVKQGCWSHIGDPQECHYEECVVTTTPPSIQNGTYRFCCCSTDLCNVNFTENFPPPDTTPLSPPHSFNRDET
chain 2: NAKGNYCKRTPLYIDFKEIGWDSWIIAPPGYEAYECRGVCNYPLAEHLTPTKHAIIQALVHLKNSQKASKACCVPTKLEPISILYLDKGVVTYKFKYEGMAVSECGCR

# Variants of: B1
# assay text: SPR (Biacore); BMP10 immobilised on a CM5 Biacore chip; parent: 1.19e+03 nM

{"mutant id": "chain 1 Q66H", "Kd [nM]": 1220}
{"mutant id": "chain 1 G63E", "Kd [nM]": 153000}
{"mutant id": "chain 1 E72K", "Kd [nM]": 1070}
{"mutant id": "chain 1 S81P", "Kd [nM]": 328}
{"mutant id": "chain 1 G63W", "Kd [nM]": 237000}
{"mutant id": "chain 1 G63A", "Kd [nM]": 3190}

Reference for the values: paper PMC9064986
